Exercise: state measured IC50 for each of the compounds provided.
Test system: PL45 (pancreatic cancer cells)
Test Summary: Anti-proliferation activity against PL45 cells
Assay type: cell-based
Experimental Conditions: Table 5, heterocyclic analogues, n = 3
Experimental: Upon completion of synthesis of library of compounds in Examples 23 and 24, the compounds were evaluated for anti-proliferative activity against SkBr3 (Her2 overexpressing breast cancer cells), MCF-7 (estrogen receptor positive breast cancer cells), HCT-116 (colon cancer cells characterized by wild-type p53), PL45 (pancreatic cancer cells), LNCaP (androgen sensitive prostate cancer cells) and PC-3 (androgen independent prostate cancer cells) cell lines. […]
Answers are plain numbers, in µM.

Known IC50 results, listed for orientation:
>>> df
                              sample_smiles  quantity  obs_value
0  CO[C@@H]1[C@@H](O)[C@@H](O)[C@H](Oc2ccc3cc(NC(=O)c4ccc5c(c4)OCO5)c(=O)oc3c2C)OC1(C)C      IC50        5.2
1  CO[C@@H]1[C@@H](O)[C@@H](O)[C@H](Oc2ccc3cc(NC(=O)c4cc5ccccc5[nH]4)c(=O)oc3c2C)OC1(C)C      IC50       0.47
2  CO[C@@H]1[C@@H](O)[C@@H](O)[C@H](Oc2ccc3cc(NC(=O)c4ccccn4)c(=O)oc3c2C)OC1(C)C      IC50        7.9

Consider the following items and state reported IC50 for each.
1. CO[C@@H]1[C@@H](O)[C@@H](O)[C@H](Oc2ccc3cc(NC(=O)c4c[nH]c5ccccc45)c(=O)oc3c2C)OC1(C)C
2. CO[C@@H]1[C@@H](O)[C@@H](O)[C@H](Oc2ccc3cc(NC(=O)c4cc5ccccc5s4)c(=O)oc3c2C)OC1(C)C
3. CO[C@@H]1[C@@H](O)[C@@H](O)[C@H](Oc2ccc3cc(NC(=O)c4ccncc4)c(=O)oc3c2C)OC1(C)C

Data returned:
[1.8, 33.2, 19.2]

Consider the following items and state reported IC50 for each.
1. CO[C@@H]1[C@@H](O)[C@@H](O)[C@H](Oc2ccc3cc(NC(=O)c4cccnc4)c(=O)oc3c2C)OC1(C)C
2. CO[C@@H]1[C@@H](O)[C@@H](O)[C@H](Oc2ccc3cc(NC(=O)c4cc5ccccc5o4)c(=O)oc3c2C)OC1(C)C

Data returned:
13.2
3.8
